Listing: Cell viability at 0.3 μM of selected molecules
# Test system: PBMC
# Protocol text: Cellular viability of PBMCs by MTS assay
# Assay type: cell-based, human
# Assay context: 0.3 μM
Please state the figure in %; there is no need to write the unit.

O=C1c2ccccc2C(=O)N1C1CCC(=S)NC1=S (stereo not drawn) :: 94
O=C1c2ccccc2C(=S)N1C1CCC(=S)NC1=S (stereo not drawn) :: 90

Could you now consider this next molecule?
Query: Value lookup for Cell viability at 0.3 μM; key = O=C1NC(=S)CCC1N1C(=O)c2ccccc2C1=S (stereo not drawn)
Reply: 94

* * *

# Test system: TNF-α
# Protocol text: Inhibition of LPS-induced TNF-α secretion in human PBMC (ELISA)
# Type: cell-based
# Assay context: 30 μM
Measured endpoint: Inhibition of TNF-α secretion at 30 μM (in words)

O=C1NC(=S)CCC1N1C(=O)c2ccccc2C1=O (stereo not shown) [Compound 205] :: only marginal activity
O=C1CCC(N2C(=O)c3ccccc3C2=S)C(=O)N1 (stereo not shown) [Compound 212] :: only marginal activity
